I'd be grateful if you could share measured Dimer 50 kDa, % for these entries.
- TARGET_ENTITY: the molecule itself
- ASSAY_REMARKS: cross-linking; Ca2+-loaded proteins: 0.02% glutaric aldehyde, 16 h, 20 °C, protein 1 mg/mL, 20 mM Tricine-KOH pH 7.4, 50 mM KCl, 1 mM DTT, 1 mM CaCl2; SDS-PAGE, Coomassie, densitometry; self-association
Numbers only, in %.

recombinant wild type human recoverin (natural protein, UniProt P35243 1-200, looked up, myristoyl group at the N terminus (degree of myristoylation exceeded 89%), recoverin, human, UniProt P35243; cDNA from Y79 retinoblastoma cells, amplified with primers from the start codon to the stop codon, subcloned into pET-15b(+) by NcoI and XhoI; also called rWT; rWT recoverin; source: E. coli pET15b rec/pBB131/BL21(DE3)RILLC+, purified (phenyl-Sepharose, Toyopearl SuperQ-650M)) MGNSKSGALSKEILEELQLNTKFSEEELCSWYQSFLKDCPTGRITQQQFQSIYAKFFPDTDPKAYAQHVFRSFDSNLDGTLDFKEYVIALHMTTAGKTNQKLEWAFSLYDVDGNGTISKNEVLEIVMAIFKMITPEDVKLLPDDENTPEKRAEKIWKYFGKNDDDKLTEKEFIEGTLANKEILRLIQFEPQKVKEKMKNA: 30.9

Moving on to the next protein.
Which Dimer 50 kDa, % value belongs to human recoverin mutant F106A (natural protein, UniProt P35243 1-200, looked up, myristoylated (fraction of non-myristoylated forms did not exceed 16%), recoverin, human, UniProt P35243, C-terminal 'black' cluster mutant; Parent construct as m1; source: E. coli, expressed and purified similarly to the rWT protein (phenyl-Sepharose, Toyopearl SuperQ-650M)) MGNSKSGALSKEILEELQLNTKFSEEELCSWYQSFLKDCPTGRITQQQFQSIYAKFFPDTDPKAYAQHVFRSFDSNLDGTLDFKEYVIALHMTTAGKTNQKLEWAASLYDVDGNGTISKNEVLEIVMAIFKMITPEDVKLLPDDENTPEKRAEKIWKYFGKNDDDKLTEKEFIEGTLANKEILRLIQFEPQKVKEKMKNA ?
27.1
